- Tested on: HeLa Kyoto;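 further: HeLa Kyoto cells synchronized by double thymidine or nocodazole block, proteins quantified by TMT10plex mass spectrometry, three independent biological replicates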
- assay.procedure: melting temperature (median over replicates), in situ; higher = more thermally stable
- particulars: cell cycle stage: mitosis
test.readout: melting temperature (°C)
Answer format: numeric, °C implied, no suffix.

Record summary for MTSELDIFVGNTTLIDEDVYRLWLDGYSVTDAVALRVRSGILEQTGATAAVLQSDTMDHYRTFHMLERLLHAPPKLLHQLIFQIPPSRQALLIERYYAFDEAFVREVLGKKLSKGTKKDLDDISTKTGITLKSCRRQFDNFKRVFKVVEEMRGSLVDNIQQHFLLSDRLARDYAAIVFFANNRFETGKKKLQYLSFGDFAFCAELMIQNWTLGAVGEAPTDPDSQMDDMDMDLDKEFLQDLKELKVLVADKDLLDLHKSLVCTALRGKLGVFSEMEANFKNLSRGLVNVAAKLTHNKDVRDLFVDLVEKFVEPCRSDHWPLSDVRFFLNQYSASVHSLDGFRHQALWDRYMGTLRGCLLRLYHD [FIBP] : reported melting temperature = 49.5

Record summary for MAWTKYQLFLAGLMLVTGSINTLSAKWADNFMAEGCGGSKEHSFQHPFLQAVGMFLGEFSCLAAFYLLRCRAAGQSDSSVDPQQPFNPLLFLPPALCDMTGTSLMYVALNMTSASSFQMLRGAVIIFTGLFSVAFLGRRLVLSQWLGILATIAGLVVVGLADLLSKHDSQHKLSEVITGDLLIIMAQIIVAIQMVLEEKFVYKHNVHPLRAVGTEGLFGFVILSLLLVPMYYIPAGSFSGNPRGTLEDALDAFCQVGQQPLIAVALLGNISSIAFFNFAGISVTKELSATTRMVLDSLRTVVIWALSLALGWEAFHALQILGFLILLIGTALYNGLHRPLLGRLSRGRPLAEESEQERLLGGTRTPINDAS [SLC35F6] : reported melting temperature = 56

Record summary for MAQLGAVVAVASSFFCASLFSAVHKIEEGHIGVYYRGGALLTSTSGPGFHLMLPFITSYKSVQTTLQTDEVKNVPCGTSGGVMIYFDRIEVVNFLVPNAVYDIVKNYTADYDKALIFNKIHHELNQFCSVHTLQEVYIELFDQIDENLKLALQQDLTSMAPGLVIQAVRVTKPNIPEAIRRNYELMESEKTKLLIAAQKQKVVEKEAETERKKALIEAEKVAQVAEITYGQKVMEKETEKKISEIEDAAFLAREKAKADAECYTAMKIAEANKLKLTPEYLQLMKYKAIASNSKIYFGKDIPNMFMDSAGSVSKQFEGLADKLSFGLEDEPLETATKEN [ERLIN2] : reported melting temperature = 53.2

Record summary for MDPSLLRERELFKKRALSTPVVEKRSASSESSSSSSKKKKTKVEHGGSSGSKQNSDHSNGSFNLKALSGSSGYKFGVLAKIVNYMKTRHQRGDTHPLTLDEILDETQHLDIGLKQKQWLMTEALVNNPKIEVIDGKYAFKPKYNVRDKKALLRLLDQHDQRGLGGILLEDIEEALPNSQKAVKALGDQILFVNRPDKKKILFFNDKSCQFSVDEEFQKLWRSVTVDSMDEEKIEEYLKRQGISSMQESGPKKVAPIQRRKKPASQKKRRFKTHNEHLAGVLKDYSDITSSK [GTF2E2] : reported melting temperature = 50.2
